Experiment: Prodrug activation assessed as enzyme-mediated compound dephosphorylation in presence of wheat germ acid phosphatase Sigma P3627 at pH 7.4 by HPLC
Conditions: isolated protein

>  <chemicalSmiles>
CSSC(C)(C)CCC(=O)Nc1ccc2[nH]c(C(=O)Nc3ccc4[nH]c(C(=O)N5C[C@@H](CCl)c6c5cc(OP(=O)(O)O)c5ccccc65)cc4c3)cc2c1

>  <Drug metabolism>
Active

$$$$
>  <chemicalSmiles>
O=C(CCS)Nc1ccc2[nH]c(C(=O)Nc3ccc4[nH]c(C(=O)N5C[C@@H](CCl)c6c5cc(OP(=O)(O)O)c5ccccc65)cc4c3)cc2c1

>  <Drug metabolism>
Active

$$$$
>  <chemicalSmiles>
CSSCCC(=O)Nc1ccc2[nH]c(C(=O)Nc3ccc4[nH]c(C(=O)N5C[C@@H](CCl)c6c5cc(OP(=O)(O)O)c5ccccc65)cc4c3)cc2c1

>  <Drug metabolism>
Active

$$$$
>  <chemicalSmiles>
CC(C)(S)CCC(=O)Nc1ccc2[nH]c(C(=O)Nc3ccc4[nH]c(C(=O)N5C[C@@H](CCl)c6c5cc(OP(=O)(O)O)c5ccccc65)cc4c3)cc2c1

>  <Drug metabolism>
Active

$$$$
